Test system: Escherichia coli
test.details: Antibacterial activity against Escherichia coli EC2549
Type: functional
Measured MIC by item
Give just the number in µg/mL; leave the unit off.

The following compounds have reported results that may help.
{"columns": ["smiles.representation", "subject.of.test", "endpoint.label", "numeric.value"],
 "data": [
  ["C[C@H]1NCc2cc(-c3ccc4c(=O)c(C(=O)O)cn(C5CC5)c4c3OC(F)F)ccc21", "Escherichia coli", "MIC", 0.008],
  ["COc1c(N2CC[C@@H]([C@H](C)N)C2)c(F)cc2c(=O)n(N)c(=O)n(C3CC3)c12", "Escherichia coli", "MIC", 0.13]
]}

q: Tell me MIC reported for Cc1c(N2CC[C@@H]([C@H](C)N)C2)c(F)cc2c(=O)n(N)c(=O)n(C3CC3)c12
a: 0.03
